Target: T1, rat PAI-1 (rat, UniProt P20961 24-402)
T1 sequence: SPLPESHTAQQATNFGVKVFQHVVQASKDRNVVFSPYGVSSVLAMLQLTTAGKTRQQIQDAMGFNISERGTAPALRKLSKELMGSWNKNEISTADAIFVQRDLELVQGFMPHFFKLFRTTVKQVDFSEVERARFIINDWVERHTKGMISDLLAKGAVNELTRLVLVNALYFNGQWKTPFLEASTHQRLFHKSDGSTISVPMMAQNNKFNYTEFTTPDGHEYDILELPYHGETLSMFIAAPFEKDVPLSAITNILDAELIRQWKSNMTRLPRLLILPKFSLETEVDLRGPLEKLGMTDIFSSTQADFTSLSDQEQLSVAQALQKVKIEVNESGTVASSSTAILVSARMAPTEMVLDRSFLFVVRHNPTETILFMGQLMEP
Test: cell-based or functional assay
measurement_kind: Chromogenic (IC50 in nM) rat

Antibody 05 scFv (scFv) QVQLQQSGAEVKKPGSSVKVSCKASGGTFSSYAISWVRQAPGQGLEWMGGIIPTFSTANYAQKFRGRVTITADESTSTAYMELSGLRSEDTAVYYCAREKRQWLEGHFDYWGRGTPVTVSSDIQMTQSPSFLSASIGDRVTITCRASEGIYHQLAWYQQKPGKAPKLLIYRASSLASGAPSRFSGSGSGTDFTLTISSLQPDDFATYYCQQYSNYPLTFGGGTKLEIK	860
Antibody 27 scFv (scFv) QVQLQQSGAEVKKPGSSVKVSCKASGGAFSSYAISWVRQAPGQGLEWMGGIIPTFGTANYAQKFQGRVTITADESTSTAYMELSGLRSEDTAVYYCAREKRQWLEGHFDYWGRGTPVTVSSDIQMTQSPSFLSASIGDRVTITCRASEGIYHNLAWYQQKPGKAPKLLIYRASSLASGAPSRFSGSGSGTDFTLTISSLQPDDFATYYCQQYSNYPLTFGGGTKLEIK	49.8
Antibody 19 scFv (scFv) QVQLQQSGAEVKKPGSSVKVSCKASGGTFSSYAISWVRQAPGQGLEWMGGIIPIFDTANYAQKFQGRVTITADESTSTAYMELSGLRSEDTAVYYCARERRQWLEGHFDYWGRGTPVTVSSDIRMTQSPSFLSASIGDRVTITCRASEGIYHELAWYQQKPGKAPKLLIYRASSLASGAPSRFSGSGSGTEFTLTISSLQPDDFATYYCQQYSNYPLTFGGGTKLEIK	7.9
Antibody 06 scFv (scFv) QVQLQQSGAEVKKPGSSVKVSCKASGGTFSSYAISWVRQAPGQGLEWMGGIIPTFGTANYAQKFQGRVTITADESTSTAYMELSGLRSEDTAVYYCAREKRQWLEGHFDYWGRGTPVTVSSDIQMTQSPSFLSASIGDRVTITCRASEGIYHELAWYQQKPGKAPKLLIYRASSLASGAPSRFSGSGSGTDFTLTISSLQPDDFATYYCQQYSNYPLTFGRGTKLEIK	37.1
Antibody 16 scFv (scFv) QVQLVQSGAEVKKPGSSVKVSCKASGGTFSSYAISWVRQAPGQGLEWMGGIIPTFGTANYAQKFQGRVTITADESTSTAYMELSSLRSEDTAVYYCAREKRQWLEGHFDYWGRGTLVTVSSDIQMTQSPSTLSASVGDRVTITCRASESIYHSLAWYQQKPGKAPKLLIYKASSLASGVPSRFSGSRSGTEFTLTISSLQPDDFATYYCQQYSNYPLTFGGGTKVEIK	5.6
Antibody 17 scFv (scFv) QVQLQQSGAEVKKPGSSVKVSCKASGGTFSSYAISWVRQAPGQGLEWMGGIIPTFGTANYAQKFQGRVTITADESTSTAYMELSGLRSEDTAVYYCAREKRQWLEGHFDYWGRGTPVTVSSDIQMTQSPSFLSASIGDRVTITCRASEGIYHELAWYQQKPGKAPKLLIYRASSLASGAPSRFSGSGSGTDFTLTISSLQPDDFATYYCQQYSNYPLTFGGGTKLEIK	24.9
